# MIC per record follows
Test system: Staphylococcus aureus
experiment description: Antibacterial activity against methicillin-resistant Staphylococcus aureus ATCC 43300 assessed as inhibition of bacterial growth measured after 18 hrs by resazurin dye based analysis
Type: functional

Example compounds with recorded MIC:
C[C@]1(C(=O)NCCCNCCCCN)CCC[C@]2(C)c3cc(O)ccc3CC[C@@H]12 : > 50.8 µM
C[C@]1(C(=O)O)CCC[C@]2(C)c3cc(OC(=O)NCCCNCCCCCCCCCCN)ccc3CC[C@@H]12 : > 42.2 µM
C[C@]1(C(=O)NCCCNCCCCCCCNCCCNC(=O)[C@@]2(C)CCC[C@]3(C)c4cc(O)ccc4CC[C@@H]23)CCC[C@]2(C)c3cc(O)ccc3CC[C@@H]12.O=C(O)C(F)(F)F.O=C(O)C(F)(F)F : 32.5 µM
CCCCCNC(=O)[C@@]1(C)CCC[C@]2(C)c3cc(OC(=O)CCCNCCCCCCNCCCNC(=O)Oc4ccc5c(c4)[C@@]4(C)CCC[C@](C)(C(=O)NCCCCC)[C@@H]4CC5)ccc3CC[C@@H]12.O=C(O)C(F)(F)F.O=C(O)C(F)(F)F : ≤ 0.21 µM
C[C@]1(C(=O)O)CCC[C@]2(C)c3cc(OC(=O)CCCNCCCCCCCCNCCCNC(=O)Oc4ccc5c(c4)[C@@]4(C)CCC[C@](C)(C(=O)O)[C@@H]4CC5)ccc3CC[C@@H]12.O=C(O)C(F)(F)F.O=C(O)C(F)(F)F : > 29.4 µM

For the next question, use this compound.
Problem: Please give the measured MIC for this compound: C[C@]1(C(=O)O)CCC[C@]2(C)c3cc(O)ccc3CC[C@@H]12 [PODOCARIC ACID]
Solution: > 117 µM
